Answer each item with its documented PBM binding z-score.
system: VDR:RXRa (NR concentration 270 nM, RXRa partner concentration 90 nM); test: PBM binding z-score (relative to random genomic background probes); higher = stronger binding; sequences stand for … in GC…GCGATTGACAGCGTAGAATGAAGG

[in] Answer with reported PBM binding z-score of GCTGCTAGGTCAGGTTGGTCAACTAACGGGTACG
[out] 0.9

[in] Answer with reported PBM binding z-score of CGAACTAGGTCAAAGGAGAGTGAAAGGCGACGTA
[out] 0.961

[in] Answer with reported PBM binding z-score of CCGAGTAGGTTACGACGGGGCATTCAGTGCGAAT
[out] 1.49

[in] Answer with reported PBM binding z-score of TCTGCTAGGTCAGGTGGTCAGCTAACGAGCTGCC
[out] 0.132

Origin of the recorded values: the supplement of paper PMC6555819
